# System: K4 kissing-loop RNA reporter;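 further: bound reporter read as fluorescence of individual clusters on recovered sequencing chips by microscopy, with normalized cluster intensities fitted with a binding model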
# procedure_details: apparent KD of K4 kissing-loop reporter; higher = weaker reporter binding
# condition_summary: Eterna round: R107; input ligand: FMN 200 uM
Quick list: apparent KD of K4 kissing-loop reporter per entry.
measurement_label: apparent KD of K4 kissing-loop reporter (µM)

* UUAUCACCCUAAGGAUAUAGCUAAGUGAUGUUUAGCUCGUCGCAGGGUAAACACUAGGCCCAAAGGCUAGAAGGUAGCUGGUACC [theeternabot_exclusion_KL_FMN_B_35] | 0.0706
* UAAUAAAUUCCAGCUGUAUCACUCUUCGAAGGAGCGGACGAAAGUCCAGGUAGGUCGCGAAGAGUGAUGUUCUUUGCGGCGCUGG [Omei KL Arginine A Exc A v6] | 0.0823
* UGUAUGUGAUUUGAUACCAGACCAGCUGGUGUUAGAUGAGUGAUGUUGAUCUAGGGUUGGGUCCCUUGGCAGCAAAUCGCAUACU [KL-SSTheoB22] | 0.593
* UGACUGGAUGGAAGGAGCGCUAAACUCCUAGUGAUGUUAGGGAUACGAGACAAAGUCUUGAAGCAGGUAGGUCGCCAUCUAGUCU [FiskerMod 10 - Jieux - Same State - Arginine B] | 0.17
* AGUGAUGUGGGAAGGAGCGGUAUAUGAAUUCAGUGAUGUUGAAGUGAUGCUGUAAUGAUGUGCCAGGUAGGUCGCCUAGAUGUUA [KL-XARG B26] | 0.267
* AAGCAGUCACUCGAAUCCAUCGAAGAUGGGCGAGGACCGGUACGGCCGCCACUCGGAGUGAUGUUCCGCAGACUGCAAAAUAAAA | 0.636

Source of measurements: the supplement of paper PMC9170038
